- assayed.system: OsSMF1 (Oryza sativa, UniProt Q6ZLB0 1-436)
- Sequence: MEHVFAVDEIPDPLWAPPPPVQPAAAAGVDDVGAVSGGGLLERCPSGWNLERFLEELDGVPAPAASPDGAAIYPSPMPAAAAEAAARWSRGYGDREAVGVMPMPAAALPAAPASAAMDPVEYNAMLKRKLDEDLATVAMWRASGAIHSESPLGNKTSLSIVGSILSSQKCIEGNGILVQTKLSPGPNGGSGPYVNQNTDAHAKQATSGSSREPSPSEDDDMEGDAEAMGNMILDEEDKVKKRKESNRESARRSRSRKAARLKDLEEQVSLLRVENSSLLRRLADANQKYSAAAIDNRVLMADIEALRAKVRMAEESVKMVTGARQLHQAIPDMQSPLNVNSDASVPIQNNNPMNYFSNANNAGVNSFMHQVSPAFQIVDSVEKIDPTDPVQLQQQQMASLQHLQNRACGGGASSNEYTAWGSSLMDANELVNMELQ
- assay.explanation: protein-binding microarray (RPBM); PBS, 2% BSA, 51.3 ng/ul salmon testes DNA, 50 uM zinc acetate, 200 nM TF, 25 C, 1 h; high values mean tight binding
- condition.description: protein: recombinant; tags: N-terminal polyhistidine and DsRed monomer fusion (pET32a); chain copies: 2; label: CyDye5-dUTP incorporated in the synthesized complementary strand; 3' TTTTT single-stranded linker to array surface; dsDNA, one strand shown
In all, about 39,000 sequences were measured (“fluorescence intensity (a.u.)”: median about 4,300, highest 2% from about 39,000 on). Shown is part of a subset that was picked to be rich in the highest values.
measured.parameter: binding signal

Example sequences with recorded binding signal:
{"columns": ["residue.string", "assayed.system", "binding signal"],
 "data": [
  ["GGATGGACGTGTGGGGCCTCGCCGTCAGCATTTGCTCCTTCGGAGTCACCTAGTGCAG", "OsSMF1 (Oryza sativa, UniProt Q6ZLB0 1-436)", "4560 fluorescence intensity (a.u.)"],
  ["CTCCTCCATTGCCAGTTGCTACTCATCCTCATCCTCTCCACGGAGTCACCTAGTGCAG", "OsSMF1 (Oryza sativa, UniProt Q6ZLB0 1-436)", "22600 fluorescence intensity (a.u.)"],
  ["TAAAATAGTTTTAAAACTTTAAGTTGAAAGTAAATACTTTCGGAGTCACCTAGTGCAG", "OsSMF1 (Oryza sativa, UniProt Q6ZLB0 1-436)", "27900 fluorescence intensity (a.u.)"],
  ["CAGTCCACATAACCTGAACCCAGCGTCAATCCGCAAGCAACGGAGTCACCTAGTGCAG", "OsSMF1 (Oryza sativa, UniProt Q6ZLB0 1-436)", "40200 fluorescence intensity (a.u.)"],
  ["ATACACACATATCCGCGCCATTATAAATTTGACAGCATTTCGGAGTCACCTAGTGCAG", "OsSMF1 (Oryza sativa, UniProt Q6ZLB0 1-436)", "3440 fluorescence intensity (a.u.)"],
  ["CAACCAATCAATCACATACGTGGACAACTGCAGAAAATGCCGGAGTCACCTAGTGCAG", "OsSMF1 (Oryza sativa, UniProt Q6ZLB0 1-436)", "5610 fluorescence intensity (a.u.)"],
  ["GTCGTGCTAGCTCGATCCATTTCCTACGTGTGCACCAAACCGGAGTCACCTAGTGCAG", "OsSMF1 (Oryza sativa, UniProt Q6ZLB0 1-436)", "5810 fluorescence intensity (a.u.)"],
  ["GCGCAAGTTCTCCACAAGCCACCTCGATCGATCTCCATTGCGGAGTCACCTAGTGCAG", "OsSMF1 (Oryza sativa, UniProt Q6ZLB0 1-436)", "3420 fluorescence intensity (a.u.)"]
]}

Reported binding signal for GGCCAGGATGATCGAGCACTTGGTTGTGACACAGAGGGTGCGGAGTCACCTAGTGCAG : what is it?
3220 fluorescence intensity (a.u.)

Same question for CACAAGTTCTCCTACGCTGACTCCTCTCTTGGAACTTCAGCGGAGTCACCTAGTGCAG please.
5030 fluorescence intensity (a.u.)

----------
A collection of sequences and their measured binding signal
- assayed.system: OsSMF1 (Oryza sativa, UniProt Q6ZLB0 1-436)
- Sequence: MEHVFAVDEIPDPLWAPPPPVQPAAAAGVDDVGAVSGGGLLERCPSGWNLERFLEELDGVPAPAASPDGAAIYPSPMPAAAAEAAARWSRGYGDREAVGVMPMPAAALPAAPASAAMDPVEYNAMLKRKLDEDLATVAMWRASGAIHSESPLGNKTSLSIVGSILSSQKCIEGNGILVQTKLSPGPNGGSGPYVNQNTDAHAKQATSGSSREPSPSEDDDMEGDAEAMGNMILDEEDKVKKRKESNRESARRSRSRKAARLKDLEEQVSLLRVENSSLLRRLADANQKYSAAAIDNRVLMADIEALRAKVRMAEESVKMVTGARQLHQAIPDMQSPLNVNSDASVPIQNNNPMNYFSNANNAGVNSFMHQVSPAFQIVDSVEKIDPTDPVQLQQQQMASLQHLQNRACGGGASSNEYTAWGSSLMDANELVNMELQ
- assay.explanation: protein-binding microarray (RPBM); PBS, 2% BSA, 51.3 ng/ul salmon testes DNA, 50 uM zinc acetate, 200 nM TF, 25 C, 1 h; high values mean tight binding
- condition.description: protein: recombinant; tags: N-terminal polyhistidine and DsRed monomer fusion (pET32a); chain copies: 2; label: CyDye5-dUTP incorporated in the synthesized complementary strand; 3' TTTTT single-stranded linker to array surface; dsDNA, one strand shown
Over roughly 39,000 sequences, “fluorescence intensity (a.u.)” has its median near 4,300; the highest 2% begin near 39,000. The entries come from a sample that favours the highest values as a whole.

{"columns": ["residue.string", "assayed.system", "binding signal"],
 "data": [
  ["CATTTTCCAGGCCAAGCCAGCTCACATCACCAGAGCAACACGGAGTCACCTAGTGCAG", "OsSMF1 (Oryza sativa, UniProt Q6ZLB0 1-436)", "3720 fluorescence intensity (a.u.)"],
  ["AGCCTAGGAGGAGATGTGACCTCACAGTCAGGTGTCATCGCGGAGTCACCTAGTGCAG", "OsSMF1 (Oryza sativa, UniProt Q6ZLB0 1-436)", "3660 fluorescence intensity (a.u.)"],
  ["AAACGGATAAGTTAGTAAGTAATTTCTTCCCTCCTAATTTCGGAGTCACCTAGTGCAG", "OsSMF1 (Oryza sativa, UniProt Q6ZLB0 1-436)", "45900 fluorescence intensity (a.u.)"],
  ["TTCCGGCATGCTCAACAATTGGTCCAGGTGTTTGTTCCAGCGGAGTCACCTAGTGCAG", "OsSMF1 (Oryza sativa, UniProt Q6ZLB0 1-436)", "42200 fluorescence intensity (a.u.)"]
]}

Attention now shifts to the item below.
Any idea what binding signal was measured for GCGCCGCCAGCCGCTACAGGTCAGCGGCAACAGCAGGTTCCGGAGTCACCTAGTGCAG ?
29200 fluorescence intensity (a.u.)

----------
- assayed.system: OsSMF1 (Oryza sativa, UniProt Q6ZLB0 1-436)
- Sequence: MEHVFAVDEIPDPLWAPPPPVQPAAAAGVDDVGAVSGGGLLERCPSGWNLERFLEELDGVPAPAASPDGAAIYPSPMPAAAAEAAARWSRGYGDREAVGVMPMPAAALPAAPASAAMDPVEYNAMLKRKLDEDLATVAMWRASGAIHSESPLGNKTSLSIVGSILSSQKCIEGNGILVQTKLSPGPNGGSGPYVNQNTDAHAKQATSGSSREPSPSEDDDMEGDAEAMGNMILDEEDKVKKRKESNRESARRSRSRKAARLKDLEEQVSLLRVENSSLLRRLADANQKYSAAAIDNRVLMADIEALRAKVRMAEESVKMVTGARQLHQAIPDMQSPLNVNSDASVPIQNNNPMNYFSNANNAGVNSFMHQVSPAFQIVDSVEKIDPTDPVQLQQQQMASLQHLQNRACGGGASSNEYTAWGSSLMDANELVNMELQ
- assay.explanation: protein-binding microarray (RPBM); PBS, 2% BSA, 51.3 ng/ul salmon testes DNA, 50 uM zinc acetate, 200 nM TF, 25 C, 1 h; high values mean tight binding
- condition.description: protein: recombinant; tags: N-terminal polyhistidine and DsRed monomer fusion (pET32a); chain copies: 2; label: CyDye5-dUTP incorporated in the synthesized complementary strand; 3' TTTTT single-stranded linker to array surface; dsDNA, one strand shown
Over roughly 39,000 sequences, “fluorescence intensity (a.u.)” has its median near 4,300; the highest 2% begin near 39,000. Shown is part of a subset that was picked to be rich in the highest values.
Catalogue of binding signal readings, one per entry.

Below: 5 sequences and their reported binding signal.
{"columns": ["residue.string", "assayed.system", "binding signal"],
 "data": [
  ["CACTTTTATGACATTTTCAACCATACTATTTTCCTTAAAGCGGAGTCACCTAGTGCAG", "OsSMF1 (Oryza sativa, UniProt Q6ZLB0 1-436)", "39800 fluorescence intensity (a.u.)"],
  ["GATCAGATCGCACGCTGAGACGTATAGACGACGTGGGTCCCGGAGTCACCTAGTGCAG", "OsSMF1 (Oryza sativa, UniProt Q6ZLB0 1-436)", "4650 fluorescence intensity (a.u.)"],
  ["TACTATTAGGTATGTGGTATCCATAACCCTGACACATACCCGGAGTCACCTAGTGCAG", "OsSMF1 (Oryza sativa, UniProt Q6ZLB0 1-436)", "3600 fluorescence intensity (a.u.)"],
  ["ATTTAATAGTCCGGGAGGCATGCTTACGGACAAGGACGAACGGAGTCACCTAGTGCAG", "OsSMF1 (Oryza sativa, UniProt Q6ZLB0 1-436)", "47100 fluorescence intensity (a.u.)"],
  ["CACCTAGCATGCATAGGACGAGGCATTTAATTTTACTTATCGGAGTCACCTAGTGCAG", "OsSMF1 (Oryza sativa, UniProt Q6ZLB0 1-436)", "22000 fluorescence intensity (a.u.)"]
]}

I have this sequence here, GGGAAACGAGTCAAGCTGACGTGTGCAAGAATCTCCTACACGGAGTCACCTAGTGCAG , and I need its recorded binding signal.
13500 fluorescence intensity (a.u.)

And the next one, AAATTTGTACCATCTTGTTGTCCATCATTCTTGACAAGAGCGGAGTCACCTAGTGCAG ?
3280 fluorescence intensity (a.u.)

For TGAGCCCATTCTATCTTGTACCAATTTGTGGGATATGGCCCGGAGTCACCTAGTGCAG then?
41000 fluorescence intensity (a.u.)

Another sequence to check: AATTTACAAGGTAAAATTTTATACCACCTTATATACTTTGCGGAGTCACCTAGTGCAG
4160 fluorescence intensity (a.u.)

Note, next up: AATCAATCCATTAATATTTAACATGATCAGGCATTAGTCGCGGAGTCACCTAGTGCAG
3580 fluorescence intensity (a.u.)

Cool, now GCGAAGAACGCTTGCACTTGTGTGCAGCGACGCGCGAATTCGGAGTCACCTAGTGCAG
4440 fluorescence intensity (a.u.)

Now this one: GCGTGGCCACATCAGCCTCCTCTCTCCCTTCCTCATCTCTCGGAGTCACCTAGTGCAG
14700 fluorescence intensity (a.u.)
